Just for reference, ChEMBL document CHEMBL1201862 is where these values come from.

// reported GI50 per item
System: SK-MEL-5
Test: NCI tumour cell line growth inhibition, 48 h
The source made the active and inactive calls. Rule as the data show it: active = GI50 up to about 1.1 µM and inactive = higher.

Example entries and their recorded answers appear below.
INSERT INTO assay_data (compound, test_value) VALUES
  ('O=C1Nc2ccccc2C1S(=O)(=O)c1ccccc1 (stereo unspecified)', '> 100 µM (inactive)'),
  ('CC1OC1C(=O)P(=O)(O)O (stereo unspecified)', '> 100 µM (inactive)'),
  ('CCOC(=O)CCC(NC(=O)Cc1ccc(Nc2nc3cc(F)c(F)cc3nc2C(=O)OCC)cc1)C(=O)OCC (stereo unspecified)', '> 100 µM (inactive)'),
  ('O=C(N/C(=C\c1ccc(Oc2ccc(Cl)c(Cl)c2)cc1)c1nc2ccccc2[nH]1)c1ccccc1', '16.1 µM (inactive)'),
  ('N#CNC(=N)Nc1ccc(Cl)cc1', '> 100 µM (inactive)');

Now turn to the next compound.
# query: GI50 of entry `CSC1(SC)N2Cc3ccccc3N=C2C1(c1ccccc1)c1ccccc1`
11.4 µM (inactive)

###

The entries below come with measured GI50 values attached.
Test system: HL-60
Assay: NCI tumour cell line growth inhibition, 48 h
Activity calls are given as the source filed them. Rule as the data show it: active = GI50 up to about 1.1 µM and inactive = higher.

I would be grateful if you could share the reported GI50 for `Cc1ccc(C(=O)/C=C(\O)C(=O)NN=C(c2ccccc2)c2ccccc2)cc1` .
13.9 µM (inactive)

Endpoint output: GI50 of `CSC1=N/C(=C\c2c[nH]c3ccccc23)C(=O)N1` . Value?
18.3 µM (inactive)

Entry under review: `COc1ccc(/C=C2\NC(=S)N(/C=C3\C(=O)Oc4ccccc4C3=O)C2=O)cc1OC` . Reported GI50?
22.4 µM (inactive)

Give the measured GI50 of COC(=O)C1c2cc3c(c(O)c2C(O)CC1(C)O)C(=O)c1c(O)cc2c(c1C3=O)OC1OC2(C)C(O)C(N(C)C)C1O (stereo not given) .
12.6 µM (inactive)

Record request: GI50 value, item COCC1OC(N2C(=O)NC(=O)[C@@H]3C=C4CCCCC4=C[C@@H]32)C(OC)C1OC (stereo not given in full)
51.6 µM (inactive)

###

System: ACHN
Test: NCI tumour cell line growth inhibition, 48 h
The source made the active and inactive calls. No stated cut-off is given here; in the data, active = GI50 up to about 1.1 µM and inactive = higher.
In this exercise, the only acceptable responses are 1 (active), -1 (inactive)

INSERT INTO results (molecule, class) VALUES
  ('O=C1NC(c2cccc3ccccc23)Nc2ccccc21 (stereo not given)', 1),
  ('COC(=O)C1=NC(=S)NC(c2ccccc2)C1c1nc2ccccc2o1 (stereo not given)', -1),
  ('COC(=O)C(C(=O)C(=O)Nc1ccc(C)cc1C)c1nc2ccc([N+](=O)[O-])cc2nc1O (stereo not given)', -1),
  ('CCCNC(=S)N/N=C/c1cccc(C)n1', -1),
  ('CC(C)CC(NC(=O)OC(C)(C)C)C(=O)Nc1ccc(Nc2nc(F)nc(-c3c4ccccc4cn3C)n2)cc1 (stereo not given)', -1),
  ('CN(N=O)N1C(=O)SCC(c2ccccc2)(c2ccccc2)C1=O', -1);

Tell me the assay call for `C=COC(=O)N[C@H]1CCc2cc(OC)c(OC)c(OC)c2-c2ccc(SC)c(=O)cc21` please.
1

Could you please tell me the result logged for `C[C@]12CC[C@H](O)C=C1CC[C@@H]1[C@@H]2CC[C@]2(C)C(=N/O)/C(=C/c3ccncc3)C[C@@H]12` in this assay?
-1

Query: recorded result category for `Cc1c[nH]c(C(=O)O)c1-c1cccn1-c1ccc(Cl)cc1[N+](=O)[O-]` in this test
-1

Assay result, entry `CC(C)(C)c1cc(/C=C2/NC(=O)NC2=O)cc(C(C)(C)C)c1O` — outcome?
-1
